Known Z-AUC of a selection of compounds
Experiment: qHTS drug screen for cell cycle checkpoint inhibitors in PARPi-resistant BRCA-mutant ovarian cancer cell lines. (AID 1963452)
Settings: PEO1/OlaR viability, CellTiter-Glo luminescence, 96 h; measured here: PEO1 parental Z-AUC; stronger effect = lower value
Peptide text beside a SMILES is read from it.
Output: the number by itself.

COMPOUND	Z-AUC
CC1(C)NC(=O)N(c2ccc([N+](=O)[O-])c(C(F)(F)F)c2)C1=O	0.722
COC(=O)[C@H](Cc1ccccc1)NC(=O)[C@@H](N)CC(=O)O (H-Asp-Phe-OMe)	0.0667

Lookup: Query (compound): CN(C)c1ccc(O)c2c1C[C@H]1C[C@H]3[C@H](N(C)C)C(=O)C(C(N)=O)=C(O)[C@@]3(O)C(=O)C1=C2O ; field requested: Z-AUC
Found: 0.206

Lookup: Same for CCC1=C(C)CN(C(=O)NCCc2ccc(S(=O)(=O)NC(=O)NC3CCC(C)CC3)cc2)C1=O (configuration not stated)
Found: 0.246

Lookup: Same for Cc1c(OCC(F)(F)F)ccnc1CS(=O)c1nc2ccccc2[nH]1 (configuration not stated)
Found: 0.689

Lookup: Same for O=P(O)(O)C(O)(Cn1ccnc1)P(=O)(O)O
Found: 1.58

Lookup: Same for COc1ccccc1N1CCN(CCN(C(=O)C2CCCCC2)c2ccccn2)CC1
Found: 0.37

Lookup: Same for CC[C@]1(O)C[C@H]2CN(CCc3c([nH]c4ccccc34)[C@@](C(=O)OC)(c3cc4c(cc3OC)N(C=O)[C@H]3[C@@](O)(C(=O)OC)[C@H](OC(C)=O)[C@]5(CC)C=CCN6CC[C@]43[C@@H]65)C2)C1
Found: -1.14

###

Assay: qHTS profiling for inhibitors of Plasmodium falciparum proliferation (AID 504749);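 further: 0% = DMSO vehicle and full inhibition = artemisinin control; nearly all actives have a fitted effect of over 60% in size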
Details: P. falciparum in erythrocytes, SYBR Green DNA, 72 h; at 28.7 µM (top of the series); parasite line B
Results filed as inconclusive are left out. Calls of active or inactive are those of the source. Calls come from the whole dose curve; as a rule, active = well fitted inhibition curve with a large enough effect; inconclusive = small, poorly fitted or top-dose-only effect; inactive = flat fitted curve, though single readings scatter.
VALUE_KIND: activity, negative = inhibition

Solved cases (3 shown):
> print(dat)
                                   compound                       value.kind   observed.result
1  CC(C)[C@H](N)C(=O)OCCOCn1cnc2c(=O)[nH]c(N)nc21  activity, negative = inhibition  7.31% (inactive)
2             CCN(CC)CCOc1ccc(Cc2ccccc2)cc1  activity, negative = inhibition  6.88% (inactive)
3  CC1(C)NC(=O)N(c2ccc([N+](=O)[O-])c(C(F)(F)F)c2)C1=O  activity, negative = inhibition  7.49% (inactive)

Lookup: Query (compound): O=C(O)c1cc(=O)c2c(OCC(O)COc3cccc4oc(C(=O)O)cc(=O)c34)cccc2o1 ; field requested: activity, negative = inhibition
Found: 15.8% (inactive)

Lookup: Same for Nc1cccc2c1CN(C1CCC(=O)NC1=O)C2=O (stereo not given)
Found: 5.27% (inactive)

###

Test: High-throughput drug toxicity screening in the BPDCN cell line Cal-1 (AID 1224825);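 further: cells exposed to compounds for 48 h; 100% = DMSO and 0% = bortezomib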
Details: Cal-1 BPDCN cell viability, qHTS; at 45.8 µM (top of the series) unless noted
Field 'label' (enum: 1 / 0). Set to 1 when viability (% of control) is strictly under 90%; else 0.

Solved cases (2 shown):
> print(dat)
                                   molecule  class.label
1  O=C(O)c1cn(-c2ccc(F)cc2)c2cc(N3CCNCC3)c(F)cc2c1=O            1
2    CN(C)[C@@H](CCOc1cccc2ccccc12)c1ccccc1            1

Lookup: Below 90% on viability (% of control)? Entry COC1=C(OC)C(=O)C(CCCCCCCCCCO)=C(C)C1=O
Found: 1

Lookup: Same for COC(=O)C1=C(C)NC(C)=C(C(=O)OC(C)C)C1c1cccc2nonc12 (configuration not stated)
Found: 0

Lookup: Same for COC(=O)N[C@H](C(=O)N[C@@H](Cc1ccccc1)[C@@H](O)CN(Cc1ccc(-c2ccccn2)cc1)NC(=O)[C@@H](NC(=O)OC)C(C)(C)C)C(C)(C)C
Found: 0

Lookup: Same for COc1ccc(C2(C#N)CCC(C(=O)O)CC2)cc1OC1CCCC1 (configuration not stated)
Found: 1

Lookup: Same for CC1(C)NC(=O)N(c2ccc([N+](=O)[O-])c(C(F)(F)F)c2)C1=O
Found: 0
